- assay-system: human GCG receptor (human, UniProt P47871 26-477)
- Sequence (P47871 26-477): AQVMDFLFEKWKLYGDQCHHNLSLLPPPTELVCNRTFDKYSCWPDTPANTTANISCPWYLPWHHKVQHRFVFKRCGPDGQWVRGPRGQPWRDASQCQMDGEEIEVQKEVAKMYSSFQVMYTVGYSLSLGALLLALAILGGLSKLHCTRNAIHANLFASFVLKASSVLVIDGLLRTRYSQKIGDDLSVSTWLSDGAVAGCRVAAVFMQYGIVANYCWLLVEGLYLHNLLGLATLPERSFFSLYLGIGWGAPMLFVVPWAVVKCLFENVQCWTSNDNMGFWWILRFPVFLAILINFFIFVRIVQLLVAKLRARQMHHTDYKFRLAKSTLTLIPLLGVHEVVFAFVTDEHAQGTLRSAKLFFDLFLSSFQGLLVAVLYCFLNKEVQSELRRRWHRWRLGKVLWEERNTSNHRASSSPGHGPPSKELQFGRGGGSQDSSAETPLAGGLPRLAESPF
- experimental-details: cell-based or functional assay
Positions of bridges follow the written chain, without caps; N, C: chain ends. Non-standard residues stand in square brackets, D forms with d. No end group written: not given here. *: point of attachment. Acetyl(2-(4-imidazolyl)) = O=C(Cc1c[nH]cn1)*; Aib = CC(C)(N)C(=O)O
Reported values of In vitro Activity Compared to Native Peptide (%) vs. Glucagon for individual entries
parameter: In vitro Activity Compared to Native Peptide (%) vs. Glucagon

binder="Y[Aib]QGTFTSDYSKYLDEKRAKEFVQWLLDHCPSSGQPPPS (bridge 16-20) [triple agonist of SEQ ID NO: 96]" meas_value=195%
binder="H[Aib]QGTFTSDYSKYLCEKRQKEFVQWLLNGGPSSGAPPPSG (bridge 16-20) [triple agonist of SEQ ID NO: 36]" meas_value=0.39%
binder="{Acetyl(2-(4-imidazolyl))}-[Aib]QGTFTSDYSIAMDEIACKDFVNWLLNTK (bridge 15-19) [triple agonist of SEQ ID NO: 61]" meas_value="< 0.1%"
binder="[Acetyl(2-(4-imidazolyl))]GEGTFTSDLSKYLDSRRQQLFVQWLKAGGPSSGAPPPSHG [triple agonist of SEQ ID NO: 11]" meas_value="< 0.1%"
binder="H[Aib]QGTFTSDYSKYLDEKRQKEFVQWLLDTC (bridge 16-20) [triple agonist of SEQ ID NO: 52]" meas_value=7.5%
